The reported numbers originate from ChEMBL document CHEMBL1201862.

system: DU-145; experiment: NCI tumour cell line growth inhibition, 48 h
Calls of active or inactive are those of the source. Rule as the data show it: active = GI50 up to about 1.1 µM and inactive = higher.
Parameter Measured: GI50

// batch mode: one GI50 value per listed entry
1. CC(=O)NC1C(OCc2ccccc2)OC(CO)C(O)C1OCC(=O)NC(C(=O)NC(CCC(=O)NCCCCCC(=O)Nc1ccc2c(c1)CN1C(=O)c3ccccc3C1=N2)C(N)=O)C(C)C (stereo not given)
2. CC(C)(C)c1cc(OCc2nnc(S)n2N)c(Cl)cc1OCc1nnc(S)n1N

1: 63.8 µM (inactive); 2: 59 µM (inactive)

// batch mode: one GI50 value per listed entry
1. CCCCc1ccc(C#CC#Cc2ccc(CCCC)s2)s1
2. O=C(O)c1nc(-c2ccccc2)[nH]c1C(=O)O
3. COc1c(Br)cc(/C=C(\C#N)c2cccnc2)cc1Br
4. CC1(C#N)CC(C)(C)C(/C=C2/CC(C)(C)C(/C=C3/OC(=N)CC3(C)C)=N2)=N1 (stereo not given)
5. O=C(COc1ccc(Cl)c(Cl)c1)N(Cc1ccccc1)Cc1ccc[n+](Cc2ccc(Cl)cc2S(=O)(=O)F)c1
6. O[C@@]1(c2cccs2)c2cccc(Cl)c2[C@](O)(c2cccs2)c2cccc(Cl)c21

1. > 100 µM (inactive)
2. 15 µM (inactive)
3. > 100 µM (inactive)
4. 33.7 µM (inactive)
5. > 100 µM (inactive)
6. 24.7 µM (inactive)

// batch mode: one GI50 value per listed entry
1. Cc1c(/C=N\NC(=S)N2CCN(C(=S)N/N=C\c3c(C)n(C)n(-c4ccccc4)c3=O)CC2)c(=O)n(-c2ccccc2)n1C
2. O=C(c1ccc([N+](=O)[O-])cc1)N1CCCC1
3. N#Cc1ccc(-c2nc(C#N)c(N)o2)cc1
4. O=c1[nH]c2nc3ccccc3c(=O)n2/c1=C/c1ccc(Cl)cc1
5. Cc1ccc2c(c1)C(=O)/C(=C\c1ccccc1)CCS2(=O)=O
6. CC(=O)/N=C1\NC(=O)/C(=C/c2ccc(/C=C3/C(=O)N/C(=N\C(C)=O)N3C)cc2)N1C

["56 µM (inactive)", "> 100 µM (inactive)", "> 10 µM (inactive)", "33.3 µM (inactive)", "3.27 µM (inactive)", "> 100 µM (inactive)"]

// batch mode: one GI50 value per listed entry
1. CC(C)c1ccccc1[S+]([O-])c1ccccc1C(C)(C)O (stereo not given)
2. CSc1c(C#N)c(=O)n(N)c2c1c(C)nn2-c1ccccc1
3. COC(=O)C1=C(C(=O)OC)C2(C)C=CC1O2 (stereo not given)
4. c1ccc(NN(Cc2cnccn2)c2ccccc2)cc1

1: > 100 µM (inactive); 2: 37.2 µM (inactive); 3: 17.9 µM (inactive); 4: > 100 µM (inactive)

// batch mode: one GI50 value per listed entry
1. O=C1OC2c3ccccc3C(=O)C2(c2ccccc2)N1c1ccccc1 (stereo not given)
2. C=C(CCC(C)C1CCC2C3=C(C(=O)CC21C)C1(C)CCC(=O)[C@@H](C)C1CC3=O)C(C)C(=O)O (stereo not given in full)

1: > 200 µM (inactive); 2: > 100 µM (inactive)
